Target: MERTK (Homo sapiens)
Construct: purchased DiscoverX (KINOMEscan)
Sequence (Q12866 21-999): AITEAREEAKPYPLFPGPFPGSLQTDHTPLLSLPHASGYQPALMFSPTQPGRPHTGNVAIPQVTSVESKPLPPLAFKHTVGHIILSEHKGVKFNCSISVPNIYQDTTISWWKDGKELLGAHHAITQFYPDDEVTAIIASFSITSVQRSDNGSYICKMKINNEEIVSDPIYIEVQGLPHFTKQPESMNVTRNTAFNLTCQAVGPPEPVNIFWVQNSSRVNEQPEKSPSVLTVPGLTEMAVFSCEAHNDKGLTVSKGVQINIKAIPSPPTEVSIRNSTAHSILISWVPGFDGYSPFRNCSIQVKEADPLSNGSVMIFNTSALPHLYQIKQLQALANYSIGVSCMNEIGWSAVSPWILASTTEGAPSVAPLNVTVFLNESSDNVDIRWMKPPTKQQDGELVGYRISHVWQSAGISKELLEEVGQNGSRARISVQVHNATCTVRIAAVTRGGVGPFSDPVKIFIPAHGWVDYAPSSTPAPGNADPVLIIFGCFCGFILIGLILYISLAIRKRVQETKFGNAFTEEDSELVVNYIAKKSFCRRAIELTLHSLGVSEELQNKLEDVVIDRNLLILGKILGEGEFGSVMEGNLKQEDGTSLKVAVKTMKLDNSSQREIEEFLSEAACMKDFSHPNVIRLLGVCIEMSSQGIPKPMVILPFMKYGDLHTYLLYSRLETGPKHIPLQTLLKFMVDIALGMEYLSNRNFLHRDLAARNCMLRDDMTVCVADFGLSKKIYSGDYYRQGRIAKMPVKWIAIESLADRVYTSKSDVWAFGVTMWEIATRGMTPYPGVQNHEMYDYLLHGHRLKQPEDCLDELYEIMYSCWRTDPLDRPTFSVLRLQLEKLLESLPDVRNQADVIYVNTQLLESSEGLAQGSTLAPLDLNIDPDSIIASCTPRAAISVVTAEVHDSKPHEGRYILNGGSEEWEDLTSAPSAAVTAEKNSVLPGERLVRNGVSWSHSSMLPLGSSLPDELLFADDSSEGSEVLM
Assay: KINOMEscan competitive binding
Conditions: 10 µM, n=1; kinase MERTK; read-out: Percent inhibition MERTK
QUANTITY: inhibition at 10 µM (%)
Provide the reading as a plain figure in %.

Here are 9 compounds together with their reported answers.
{"STRUCTURE STRING": "Cc1ccc(O)cc1N(C)c1ccnc(Nc2cccc(S(N)(=O)=O)c2)n1", "inhibition at 10 µM / %": 77.6}
{"STRUCTURE STRING": "CN1CCN(c2ccc(Nc3nccc(-c4cnn5ncccc45)n3)cc2C#N)CC1", "inhibition at 10 µM / %": 98.7}
{"STRUCTURE STRING": "c1ccc(COc2cccc(-c3ccnc4[nH]ccc34)c2)cc1", "inhibition at 10 µM / %": 94.1}
{"STRUCTURE STRING": "C[C@@H](Oc1cc(-c2cnc3ccccn23)sc1C(N)=O)c1ccccc1Cl", "inhibition at 10 µM / %": 87.6}
{"STRUCTURE STRING": "COc1ccc(Nc2nccc(-c3cnn4ncccc34)n2)cc1", "inhibition at 10 µM / %": 65.9}
{"STRUCTURE STRING": "Cc1ccc(O)cc1Nc1ccnc(Nc2cccc(C(N)=O)c2)n1", "inhibition at 10 µM / %": 0}
{"STRUCTURE STRING": "Fc1cccc(COc2ccc(Nc3ncnc4c3CN(CCN3CCOCC3)CC4)cc2Cl)c1", "inhibition at 10 µM / %": 0}
{"STRUCTURE STRING": "Nc1ncc2c(-c3ccncc3)c[nH]c2n1", "inhibition at 10 µM / %": 0}
{"STRUCTURE STRING": "Clc1ccc(Nc2ncc(-c3ccccc3)s2)cc1", "inhibition at 10 µM / %": 0}

We next turn to a different compound, shown below.
Return the recorded inhibition at 10 µM value; entry: COc1cc(Nc2nccc(-c3sc(N)nc3-c3cccc(NC(=O)c4c(F)cccc4F)c3)n2)cc(OC)c1OC 99.6

###

The entries below are paired with their reported inhibition at 10 µM.
biological target: panel of 203 kinases (Homo sapiens, UniProt P08581); construct: purchased DiscoverX (KINOMEscan); assay: KINOMEscan competitive binding, whole panel; conditions: 10 µM, n=1; kinase MET; read-out: Percent inhibition MET
Sequence (P08581 25-1390): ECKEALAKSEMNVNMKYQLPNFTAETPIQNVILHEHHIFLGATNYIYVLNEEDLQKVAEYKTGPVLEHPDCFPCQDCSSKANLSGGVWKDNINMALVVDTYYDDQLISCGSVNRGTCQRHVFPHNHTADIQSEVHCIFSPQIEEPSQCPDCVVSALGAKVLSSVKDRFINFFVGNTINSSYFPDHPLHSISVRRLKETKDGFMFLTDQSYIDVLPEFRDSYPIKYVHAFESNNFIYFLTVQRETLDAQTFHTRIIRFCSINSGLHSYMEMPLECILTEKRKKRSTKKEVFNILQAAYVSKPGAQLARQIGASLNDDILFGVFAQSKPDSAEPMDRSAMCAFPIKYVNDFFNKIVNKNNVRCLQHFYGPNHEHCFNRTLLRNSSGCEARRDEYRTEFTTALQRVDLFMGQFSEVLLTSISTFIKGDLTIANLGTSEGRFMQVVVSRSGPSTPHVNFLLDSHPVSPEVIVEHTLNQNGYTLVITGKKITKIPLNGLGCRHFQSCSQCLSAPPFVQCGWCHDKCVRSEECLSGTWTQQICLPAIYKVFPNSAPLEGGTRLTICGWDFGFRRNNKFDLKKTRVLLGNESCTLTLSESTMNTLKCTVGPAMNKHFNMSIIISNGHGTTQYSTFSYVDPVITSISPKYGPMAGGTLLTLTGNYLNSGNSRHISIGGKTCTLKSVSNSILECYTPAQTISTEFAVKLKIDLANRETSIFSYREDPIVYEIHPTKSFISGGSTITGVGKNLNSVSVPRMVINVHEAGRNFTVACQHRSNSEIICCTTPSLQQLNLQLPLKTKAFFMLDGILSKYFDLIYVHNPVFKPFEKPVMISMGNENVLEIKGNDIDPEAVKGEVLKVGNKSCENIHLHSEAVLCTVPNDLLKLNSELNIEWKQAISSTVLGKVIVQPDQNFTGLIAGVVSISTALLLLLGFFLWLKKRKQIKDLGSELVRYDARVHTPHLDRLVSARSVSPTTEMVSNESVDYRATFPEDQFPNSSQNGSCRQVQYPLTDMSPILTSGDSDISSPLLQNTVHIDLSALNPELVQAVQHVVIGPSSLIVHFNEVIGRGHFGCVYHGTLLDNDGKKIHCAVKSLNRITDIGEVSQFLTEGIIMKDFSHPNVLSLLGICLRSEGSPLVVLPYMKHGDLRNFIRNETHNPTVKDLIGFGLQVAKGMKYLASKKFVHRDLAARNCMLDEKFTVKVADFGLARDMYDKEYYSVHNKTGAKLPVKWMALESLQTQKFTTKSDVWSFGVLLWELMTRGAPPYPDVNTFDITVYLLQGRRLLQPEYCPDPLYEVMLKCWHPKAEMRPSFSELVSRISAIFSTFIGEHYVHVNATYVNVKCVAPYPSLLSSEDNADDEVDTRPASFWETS
Provide the reading as a plain figure in %.

Here are 5 compounds together with their reported answers.
{"STRUCTURE STRING": "COc1ccc(Nc2nccc(-c3cnn4ncccc34)n2)cc1", "UNIT NAME": "%", "inhibition at 10 µM": 68.8}
{"STRUCTURE STRING": "COc1cc(Nc2nccc(-c3sc(N)nc3-c3cccc(NC(=O)c4c(F)cccc4F)c3)n2)cc(OC)c1OC", "UNIT NAME": "%", "inhibition at 10 µM": 99.6}
{"STRUCTURE STRING": "CN1CCN(c2ccc(Nc3nccc(-c4cnn5ncccc45)n3)cc2C#N)CC1", "UNIT NAME": "%", "inhibition at 10 µM": 0}
{"STRUCTURE STRING": "Cc1ccc(O)cc1N(C)c1ccnc(Nc2cccc(S(N)(=O)=O)c2)n1", "UNIT NAME": "%", "inhibition at 10 µM": 90.2}
{"STRUCTURE STRING": "C[C@@H](Oc1cc(-c2cnc3ccccn23)sc1C(N)=O)c1ccccc1Cl", "UNIT NAME": "%", "inhibition at 10 µM": 78.4}

Return the recorded inhibition at 10 µM value; entry: Nc1ncc2c(-c3ccncc3)c[nH]c2n1 0

Return the recorded inhibition at 10 µM value; entry: Fc1cccc(COc2ccc(Nc3ncnc4c3CN(CCN3CCOCC3)CC4)cc2Cl)c1 0

###

molecular target: panel of 203 kinases (Homo sapiens); construct: purchased DiscoverX (KINOMEscan); assay: KINOMEscan competitive binding, whole panel; conditions: 10 µM, n=1; kinase CAMK2G; read-out: Percent inhibition CAMK2G
QUANTITY: inhibition at 10 µM
The number alone won't do; follow it with the unit.

{"STRUCTURE STRING": "Cc1ccc(O)cc1N(C)c1ccnc(Nc2cccc(S(N)(=O)=O)c2)n1", "VALUE REPORTED": "0%"}
{"STRUCTURE STRING": "Clc1ccc(Nc2ncc(-c3ccccc3)s2)cc1", "VALUE REPORTED": "0%"}
{"STRUCTURE STRING": "C[C@@H](Oc1cc(-c2cnc3ccccn23)sc1C(N)=O)c1ccccc1Cl", "VALUE REPORTED": "0%"}

Param request: inhibition at 10 µM | system panel of 203 kinases (Homo sapiens) | item Fc1cccc(COc2ccc(Nc3ncnc4c3CN(CCN3CCOCC3)CC4)cc2Cl)c1 0%

Param request: inhibition at 10 µM | system panel of 203 kinases (Homo sapiens) | item Nc1ncc2c(-c3ccncc3)c[nH]c2n1 0%

###

The entries below are paired with their reported inhibition at 10 µM.
Target: TNK1 (Homo sapiens)
Construct: purchased DiscoverX (KINOMEscan)
Sequence (Q13470 1-666): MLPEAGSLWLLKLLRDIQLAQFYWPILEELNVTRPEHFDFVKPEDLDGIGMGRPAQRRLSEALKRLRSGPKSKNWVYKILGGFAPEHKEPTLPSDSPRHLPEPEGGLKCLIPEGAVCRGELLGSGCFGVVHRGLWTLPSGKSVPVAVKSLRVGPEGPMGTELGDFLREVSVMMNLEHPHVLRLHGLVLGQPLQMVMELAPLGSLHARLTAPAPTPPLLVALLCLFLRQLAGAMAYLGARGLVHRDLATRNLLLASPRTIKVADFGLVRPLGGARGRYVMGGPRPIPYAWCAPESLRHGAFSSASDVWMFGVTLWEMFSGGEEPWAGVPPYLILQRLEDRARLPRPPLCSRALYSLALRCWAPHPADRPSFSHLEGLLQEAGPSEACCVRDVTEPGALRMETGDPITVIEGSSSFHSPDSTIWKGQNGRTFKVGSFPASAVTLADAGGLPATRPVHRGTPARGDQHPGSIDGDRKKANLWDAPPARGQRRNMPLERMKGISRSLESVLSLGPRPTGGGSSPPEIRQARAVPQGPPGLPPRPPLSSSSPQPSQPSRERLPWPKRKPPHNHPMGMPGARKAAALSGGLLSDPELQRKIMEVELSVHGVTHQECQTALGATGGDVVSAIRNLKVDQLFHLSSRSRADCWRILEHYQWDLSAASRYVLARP
Assay: KINOMEscan competitive binding
Conditions: n=1, read-out: Percent inhibition, TNK1
Provide the reading as a plain figure in %.

Return the recorded inhibition at 10 µM value; entry: Fc1cccc(COc2ccc(Nc3ncnc4c3CN(CCN3CCOCC3)CC4)cc2Cl)c1 0

###

Target: panel of 203 kinases (Homo sapiens, UniProt P54764)
Construct: purchased DiscoverX (KINOMEscan)
Sequence (P54764 20-986): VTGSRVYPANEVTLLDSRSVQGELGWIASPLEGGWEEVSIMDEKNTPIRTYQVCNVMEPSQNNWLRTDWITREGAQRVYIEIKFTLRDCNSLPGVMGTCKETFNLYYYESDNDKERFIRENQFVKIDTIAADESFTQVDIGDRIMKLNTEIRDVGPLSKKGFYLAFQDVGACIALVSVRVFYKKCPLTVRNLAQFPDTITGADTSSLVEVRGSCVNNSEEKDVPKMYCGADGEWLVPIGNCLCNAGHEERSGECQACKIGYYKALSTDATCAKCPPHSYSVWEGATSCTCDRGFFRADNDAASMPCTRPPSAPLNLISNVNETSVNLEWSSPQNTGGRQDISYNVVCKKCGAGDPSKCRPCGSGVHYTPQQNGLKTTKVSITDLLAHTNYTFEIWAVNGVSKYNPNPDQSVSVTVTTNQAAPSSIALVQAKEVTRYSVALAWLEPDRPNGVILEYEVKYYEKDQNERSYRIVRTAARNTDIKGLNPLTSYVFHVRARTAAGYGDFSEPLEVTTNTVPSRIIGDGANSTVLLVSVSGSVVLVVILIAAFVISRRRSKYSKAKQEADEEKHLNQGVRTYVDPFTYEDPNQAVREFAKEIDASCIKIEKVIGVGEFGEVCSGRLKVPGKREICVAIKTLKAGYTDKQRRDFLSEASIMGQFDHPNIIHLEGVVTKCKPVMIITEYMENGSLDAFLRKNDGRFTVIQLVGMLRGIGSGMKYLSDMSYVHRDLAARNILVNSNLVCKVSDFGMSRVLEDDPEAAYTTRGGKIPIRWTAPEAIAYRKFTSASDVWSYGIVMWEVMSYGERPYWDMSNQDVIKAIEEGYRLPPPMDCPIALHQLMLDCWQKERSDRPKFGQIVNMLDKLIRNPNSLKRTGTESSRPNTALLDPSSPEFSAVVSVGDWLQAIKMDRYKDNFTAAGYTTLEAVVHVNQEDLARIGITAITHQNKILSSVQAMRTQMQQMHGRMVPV
Assay: KINOMEscan competitive binding, whole panel
Details: 10 µM, n=1; kinase EPHA4; read-out: Percent inhibition EPHA4
From the text: The kinases were expressed as fusions to T7 bacteriophage. This is a sensitive, competitive binding assay where test compounds were used to displace immobilized ATP-site binding probe ligands from kinases of interest. The amount of kinase that remained bound to the immobilized probe ligands on the solid support was quantified. Percentage inhibition data were was plotted on kinome trees using the web-based tool KinMap (http://www.kinhub.org/kinmap) ([60]).
QUANTITY: inhibition at 10 µM (%)
Provide the reading as a plain figure in %.

Param request: inhibition at 10 µM | system panel of 203 kinases (Homo sapiens, UniProt P54764) | item COc1cc(Nc2nccc(-c3sc(N)nc3-c3cccc(NC(=O)c4c(F)cccc4F)c3)n2)cc(OC)c1OC [Compound 7] 99.8

Param request: inhibition at 10 µM | system panel of 203 kinases (Homo sapiens, UniProt P54764) | item COc1ccc(Nc2nccc(-c3cnn4ncccc34)n2)cc1 [Compound 2] 0

Param request: inhibition at 10 µM | system panel of 203 kinases (Homo sapiens, UniProt P54764) | item Cc1ccc(O)cc1Nc1ccnc(Nc2cccc(C(N)=O)c2)n1 [Compound 3] 100

Param request: inhibition at 10 µM | system panel of 203 kinases (Homo sapiens, UniProt P54764) | item Cc1ccc(O)cc1N(C)c1ccnc(Nc2cccc(S(N)(=O)=O)c2)n1 [Compound 4] 100

Param request: inhibition at 10 µM | system panel of 203 kinases (Homo sapiens, UniProt P54764) | item C[C@@H](Oc1cc(-c2cnc3ccccn23)sc1C(N)=O)c1ccccc1Cl [Compound 8] 0

Param request: inhibition at 10 µM | system panel of 203 kinases (Homo sapiens, UniProt P54764) | item Clc1ccc(Nc2ncc(-c3ccccc3)s2)cc1 [Compound 10] 0

Just for reference, paper PMC9927415 is where these values come from.
